- System: Bacillus subtilis
- measurementProtocol: cleaved RNA product abundance (RNA/gDNA barcode ratio) relative to median wild-type variant (ratio to wild type); higher = more accumulation of the downstream cleavage product
- setupConditions: experiment (reporter, strain, medium): exp 2b: truncated aprE reporter, strain BJT200; cleavage site: cggR-gapA (positions -7 to +36 mutated)
Decision: cleaved RNA product abundance compared against 0.2; not below it gives Yes, below it gives No.

Previously resolved entries follow.
| sequenceText | targetUnderTest | class |
| --- | --- | --- |
| ACAGACGAAGGAGCCGCAAACAAGTTATTAAGGGATGAATAATCCATCAATATAAATATCTCTCACTTATTTAAA | Bacillus subtilis | No |
| ACAGACGAAGGAGCCGCAAAAAAGTTATTAAGGGATGAATAATCCCTCAATCTAAATATCTCTCACTTATTTAAA | Bacillus subtilis | No |
| ACAGACGAAGGAGCCGCAAAGAAGTTATTAAGGGATGAATAATCCCTCATCATAAATATCTCTCACTTATTTAAA | Bacillus subtilis | No |

Decide: cleaved RNA product abundance of ACAGACGAAGGAGCCGCAAAGAAGTTATTAAGGGATGAATAATCCCTCAATATAAATACCTCTCACTTATTTAAA >= 0.2?
Yes

###

- System: Bacillus subtilis
- measurementProtocol: cleaved RNA product abundance (RNA/gDNA barcode ratio) relative to median wild-type variant (ratio to wild type); higher = more accumulation of the downstream cleavage product
- setupConditions: experiment (reporter, strain, medium): exp 2b: truncated aprE reporter, strain BJT200; cleavage site: cggR-gapA (positions -7 to +36 mutated)
Decision: cleaved RNA product abundance compared against 0.1; not below it gives rule met, below it gives rule not met.

| sequenceText | class |
| --- | --- |
| ACAGACGAAGGAGCCGCAAAGAAGTTATTAAGGGATGAATAATCCCTCAATATAAATATTTCTCACTTATTTAAA | rule met |
| ACAGACGAAGGAGCCGCAAAGAAGTTATTAAGGGATGAAAAATCCCTCAATTTAAATATCTCTCACTTATTTAAA | rule met |
| ACAGACGAAGGAGCCGCAAAGAAGTTATTAAGGGATGAATAATCCGTCGATATAAATATCTCTCACTTATTTAAA | rule not met |

Decide: cleaved RNA product abundance of ACAGACGAAGGAGCCGCAAAGAAGTTATTAAGAGATGAATAATTCCTCAATATAAATATCTCTCACTTATTTAAA >= 0.1?
rule not met

Decide: cleaved RNA product abundance of ACAGACGAAGGAGCCGCAAAGAAGTTATTAAGGGATGAATATTCCCTCAAGATAAATATCTCTCACTTATTTAAA >= 0.1?
rule met

###

cleaved RNA product abundance: recorded values
- Test system: Bacillus subtilis
- measurementProtocol: cleaved RNA product abundance (RNA/gDNA barcode ratio) relative to median wild-type variant (ratio to wild type); higher = more accumulation of the downstream cleavage product
- setupConditions: experiment (reporter, strain, medium): exp 2b: truncated aprE reporter, strain BJT200; cleavage site: cggR-gapA (positions -7 to +36 mutated)

# count of solved cases: 3
| sequenceText | targetUnderTest | measuredProperty | readoutValue |
| --- | --- | --- | --- |
| ACAGACGAAGGAGCCGCAAAGAAGTAATTAAGGTATGAATAATCCCTCAATATAAATATCTCTCACTTATTTAAA | Bacillus subtilis | cleaved RNA product abundance | 0.0974 |
| ACAGACGAAGGAGCCGCAAAGAAGTTATTCAGGGATGAATAATCCCTAAATATAAATATCTCTCACTTATTTAAA | Bacillus subtilis | cleaved RNA product abundance | 0.695 |
| ACAGACGAAGGAGCCGCAAAGAAGTTATTAAGGGATGAATAATCCATCATTATAAATATCTCTCACTTATTTAAA | Bacillus subtilis | cleaved RNA product abundance | 0.158 |

// switching to the query sequence
cleaved RNA product abundance reading for ACAGACGAAGGAGCCGCAAAGAAGTTATTAAGGGAAGAAAAATCCCTCAATATAAATATCTCTCACTTATTTAAA : 0.684
